Tested on: WPMY1-TUBA1B-RELA
Assay: phenotypically active (imaging signature differs from DMSO and reproducible) at any of 0.3-9 uM (binary (1 = active, 0 = inactive)); higher = active
Conditions: treatment time: 24 h
Where a name gives a salt, the structure may show the parent alone.
Hi there, use one of these labels in your reply, thanks! yes (1) (active), no (0) (inactive)

{"Compound": "CC(C)[C@H]1CC[C@H](C(=O)N[C@H](Cc2ccccc2)C(=O)O)CC1 [nateglinide]", "Category": "no (0)"}
{"Compound": "CCOC(=O)N1CCC(=C2c3ccc(Cl)cc3CCc3cccnc32)CC1", "Category": "no (0)"}
{"Compound": "Cc1n[nH]c(=O)[nH]c1=O", "Category": "no (0)"}
{"Compound": "Cc1ccc(-c2cc(C(F)(F)F)nn2-c2ccc(S(N)(=O)=O)cc2)cc1", "Category": "no (0)"}
{"Compound": "CC(C)(C)NCC(O)c1ccc(O)c(CO)c1 (centres undefined)", "Category": "no (0)"}
{"Compound": "O=[N+]([O-])c1c(Nc2cc(F)cc(Cl)c2)ccc2nonc12", "Category": "no (0)"}
{"Compound": "CC(=O)N[C@@H]1[C@@H](O[C@H](C)C(=O)O)[C@H](O)[C@@H](CO)O[C@@H]1O", "Category": "no (0)"}
{"Compound": "CC(C)c1ccc(CC(=O)N2CCC[C@@H](c3cccc(OC(C)(C)C(=O)O)c3)C2)cc1", "Category": "no (0)"}
{"Compound": "COc1ccc2c(Oc3ccc(NC(=O)c4c(C)n(CC(C)(C)O)n(-c5ccccc5)c4=O)nc3)ccnc2c1", "Category": "no (0)"}
{"Compound": "O=C(O)c1ccc(O)c2ncccc12", "Category": "no (0)"}

# input Per the assay record, what outcome was assigned to CC(=O)N1CCN(c2ccc(OC[C@H]3CO[C@](Cn4ccnc4)(c4ccc(Cl)cc4Cl)O3)cc2)CC1 ?
# output no (0)

# input Dear all, I need the recorded test outcome for COc1ccc(C(C)=O)c(O)c1 [2'-Hydroxy-4'-Methoxyacetophenone] , thank you.
# output no (0)

# input Call for entry CC(C)NC[C@H](O)COc1cccc2ccccc12 [(S)-(-)-Propranolol hydrochloride] :
# output no (0)

Where do the numbers come from? From the supplement of paper PMC7411054.
